Measured pIC50 values are reported for all entries that follow.
Biological target: Cyclin-dependent kinase 2/cyclin A (Homo sapiens, UniProt P24941)
Assay: Inhibition of human recombinant CDK2/cyclin A expressed in baculovirus-infected insect cells
Schema: pIC50 number; meaning minus log10 of the concentration expressed in molar units.

Below, each entry is followed by its recorded pIC50 result.
[[record]]
structure_notation = "CC(C)[C@H](N)C(=O)OC[C@H](O)CNc1nc(NCc2ccc(-c3ccccn3)cc2)c2ncn(C(C)C)c2n1.Cl"
result_value = 6.06

[[record]]
structure_notation = "CC(C)n1cnc2c(NCc3ccc(-c4ccccn4)cc3)nc(N3C[C@H](O)C[C@H]3CO)nc21"
result_value = 6.19


Look up and report measured pIC50 for this entry: CC(C)n1cnc2c(NCc3ccc(-c4ccccn4)cc3)nc(NC[C@@H](O)CO)nc21
6.32

Look up and report measured pIC50 for this entry: CC(C)n1cnc2c(NCc3ccc(-c4ccccn4)cc3)nc(N[C@@H]3CCC[C@H](O)[C@@H]3O)nc21
6.21

Look up and report measured pIC50 for this entry: CC(C)n1cnc2c(NCc3ccc(-c4ccccn4)cc3)nc(NCC[C@H](O)CO)nc21
6.01

###

Measured IC50 values are reported for all entries that follow.
Target: Dual specificity tyrosine-phosphorylation-regulated kinase 1A (Homo sapiens, UniProt Q13627)
Assay: Inhibition of human recombinant DYRK1A expressed in Escherichia coli after 30 mins by liquid scintillation counter
Phrase the answer as number then unit, nothing more needed.

Look up and report measured IC50 for this entry: CC(C)n1cnc2c(NCc3ccc(-c4ccccn4)cc3)nc(NCC[C@H](O)CO)nc21
790 nM

Look up and report measured IC50 for this entry: CC(C)n1cnc2c(NCc3ccc(-c4ccccn4)cc3)nc(N[C@@H]3CCC[C@H](O)[C@@H]3O)nc21
890 nM

###

Assay: Protein binding in human serum
Type: ADME, cell-free
Conditions: read-out: PB (converted)
readout name: fraction unbound

Look up and report measured fraction unbound for this entry: CC(C)n1cnc2c(NCc3ccc(-c4ccccn4)cc3)nc(NC[C@@H](O)CO)nc21
0.054

###

Biological target: UniProt P10635
Sequence (P10635 whole entry): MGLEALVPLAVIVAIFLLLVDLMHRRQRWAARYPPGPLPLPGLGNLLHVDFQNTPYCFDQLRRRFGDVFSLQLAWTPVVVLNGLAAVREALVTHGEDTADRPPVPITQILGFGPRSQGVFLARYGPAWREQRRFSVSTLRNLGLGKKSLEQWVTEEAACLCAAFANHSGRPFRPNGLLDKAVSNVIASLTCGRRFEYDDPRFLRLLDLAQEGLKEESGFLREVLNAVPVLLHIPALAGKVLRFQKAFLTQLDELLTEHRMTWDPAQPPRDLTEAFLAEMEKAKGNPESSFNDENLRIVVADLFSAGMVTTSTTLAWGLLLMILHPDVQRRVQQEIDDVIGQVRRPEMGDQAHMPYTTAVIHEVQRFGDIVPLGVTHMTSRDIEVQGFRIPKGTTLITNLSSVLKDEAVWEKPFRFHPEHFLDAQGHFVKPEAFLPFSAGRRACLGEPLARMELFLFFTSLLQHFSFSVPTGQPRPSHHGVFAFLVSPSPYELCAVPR
pIC50: −log10 of the molar value.
readout name: pIC50

Look up and report measured pIC50 (UniProt P10635) for the following molecule: CC(C)n1cnc2c(NCc3ccc(-c4ccccn4)cc3)nc(NC[C@@H](O)CO)nc21
< 5.30

###

Measured IC50 values are reported for all entries that follow.
Target: Cyclin-dependent kinase 5/CDK5 activator 1 (Homo sapiens, UniProt Q00535)
Sequence (Q00535 whole entry): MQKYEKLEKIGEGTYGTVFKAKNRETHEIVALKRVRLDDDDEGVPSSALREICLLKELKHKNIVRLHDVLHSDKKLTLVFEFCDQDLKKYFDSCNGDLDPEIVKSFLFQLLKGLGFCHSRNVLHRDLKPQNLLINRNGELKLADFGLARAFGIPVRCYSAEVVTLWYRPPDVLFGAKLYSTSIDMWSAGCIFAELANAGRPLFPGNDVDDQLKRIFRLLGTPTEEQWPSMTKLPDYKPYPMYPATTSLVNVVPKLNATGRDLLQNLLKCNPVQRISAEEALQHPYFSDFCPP
Sequence (Q15078 whole entry, further chain): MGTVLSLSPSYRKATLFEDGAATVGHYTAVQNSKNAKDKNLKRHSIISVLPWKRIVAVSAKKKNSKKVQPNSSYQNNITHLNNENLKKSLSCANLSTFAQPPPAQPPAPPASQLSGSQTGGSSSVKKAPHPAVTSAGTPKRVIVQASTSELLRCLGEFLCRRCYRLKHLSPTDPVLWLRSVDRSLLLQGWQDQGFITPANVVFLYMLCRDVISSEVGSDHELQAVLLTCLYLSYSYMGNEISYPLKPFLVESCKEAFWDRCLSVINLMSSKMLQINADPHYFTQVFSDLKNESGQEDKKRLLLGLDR
Experiment: Inhibition of human recombinant CDK5/p25 expressed in Escherichia coli
Write it as a number; the unit nM goes unstated.

[[record]]
structure_notation = "CC(C)n1cnc2c(NCc3ccc(-c4ccccn4)cc3)nc(N3C[C@H](O)C[C@H]3CO)nc21"
readout_name = "IC50"
measure_unit = "nM"
result_value = 610

[[record]]
structure_notation = "CC(C)n1cnc2c(NCc3ccc(-c4ccccn4)cc3)nc(NCC[C@H](O)CO)nc21"
readout_name = "IC50"
measure_unit = "nM"
result_value = 820

[[record]]
structure_notation = "CC(C)[C@H](N)C(=O)OC[C@H](O)CNc1nc(NCc2ccc(-c3ccccn3)cc2)c2ncn(C(C)C)c2n1.Cl"
readout_name = "IC50"
measure_unit = "nM"
result_value = 180

[[record]]
structure_notation = "CC(C)n1cnc2c(NCc3ccc(-c4ccccn4)cc3)nc(N[C@@H]3CCC[C@H](O)[C@@H]3O)nc21"
readout_name = "IC50"
measure_unit = "nM"
result_value = 270


For the next question, use this compound.
Look up and report measured IC50 (Cyclin-dependent kinase 5/CDK5 activator 1 (Homo sapiens, UniProt Q00535)) for the following compound: CC(C)n1cnc2c(NCc3ccc(-c4ccccn4)cc3)nc(NC[C@@H](O)CO)nc21
190

###

Molecular target: CDK9/cyclin T1 (Homo sapiens, UniProt P50750)
Sequence (O60563 whole entry): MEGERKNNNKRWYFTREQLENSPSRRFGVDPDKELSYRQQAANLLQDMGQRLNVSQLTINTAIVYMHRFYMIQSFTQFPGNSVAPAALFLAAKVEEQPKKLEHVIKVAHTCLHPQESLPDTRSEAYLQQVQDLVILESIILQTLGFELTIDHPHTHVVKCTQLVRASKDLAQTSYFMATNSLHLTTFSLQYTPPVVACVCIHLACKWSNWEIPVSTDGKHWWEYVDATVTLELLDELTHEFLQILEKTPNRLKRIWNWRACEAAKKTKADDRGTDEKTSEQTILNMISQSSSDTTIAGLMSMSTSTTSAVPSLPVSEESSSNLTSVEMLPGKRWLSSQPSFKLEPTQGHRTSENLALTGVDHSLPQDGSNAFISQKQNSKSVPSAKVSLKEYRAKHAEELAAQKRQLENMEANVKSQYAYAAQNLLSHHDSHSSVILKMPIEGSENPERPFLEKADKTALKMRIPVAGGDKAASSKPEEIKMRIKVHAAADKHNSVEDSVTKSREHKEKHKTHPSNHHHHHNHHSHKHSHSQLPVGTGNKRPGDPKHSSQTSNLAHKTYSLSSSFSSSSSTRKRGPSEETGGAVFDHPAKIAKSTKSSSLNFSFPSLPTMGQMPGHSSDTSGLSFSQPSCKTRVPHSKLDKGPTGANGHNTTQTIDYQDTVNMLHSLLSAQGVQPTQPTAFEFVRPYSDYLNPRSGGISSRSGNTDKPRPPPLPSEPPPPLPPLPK
Sequence (P50750 whole entry): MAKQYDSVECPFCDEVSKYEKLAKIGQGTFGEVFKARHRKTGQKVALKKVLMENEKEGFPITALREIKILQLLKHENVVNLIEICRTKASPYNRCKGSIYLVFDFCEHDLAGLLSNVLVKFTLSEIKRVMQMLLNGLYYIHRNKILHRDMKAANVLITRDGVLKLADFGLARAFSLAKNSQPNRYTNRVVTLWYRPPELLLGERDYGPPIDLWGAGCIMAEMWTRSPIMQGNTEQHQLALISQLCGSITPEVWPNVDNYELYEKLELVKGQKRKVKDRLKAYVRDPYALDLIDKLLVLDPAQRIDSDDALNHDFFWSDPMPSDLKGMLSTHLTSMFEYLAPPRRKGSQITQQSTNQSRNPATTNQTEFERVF
Test: Inhibition of human recombinant CDK9/cyclin T expressed in baculovirus-infected insect cells
readout name: IC50 (nM)
Write it as a number; the unit nM goes unstated.

Look up and report measured IC50 for this entry: CC(C)[C@H](N)C(=O)OC[C@H](O)CNc1nc(NCc2ccc(-c3ccccn3)cc2)c2ncn(C(C)C)c2n1.Cl
180

Look up and report measured IC50 for this entry: CC(C)n1cnc2c(NCc3ccc(-c4ccccn4)cc3)nc(N[C@@H]3CCC[C@H](O)[C@@H]3O)nc21
370

Look up and report measured IC50 for this entry: CC(C)n1cnc2c(NCc3ccc(-c4ccccn4)cc3)nc(NC[C@@H](O)CO)nc21
150

Look up and report measured IC50 for this entry: CC(C)n1cnc2c(NCc3ccc(-c4ccccn4)cc3)nc(NCC[C@H](O)CO)nc21
1010

Look up and report measured IC50 for this entry: CC(C)n1cnc2c(NCc3ccc(-c4ccccn4)cc3)nc(N3C[C@H](O)C[C@H]3CO)nc21
450

###

Target sequence: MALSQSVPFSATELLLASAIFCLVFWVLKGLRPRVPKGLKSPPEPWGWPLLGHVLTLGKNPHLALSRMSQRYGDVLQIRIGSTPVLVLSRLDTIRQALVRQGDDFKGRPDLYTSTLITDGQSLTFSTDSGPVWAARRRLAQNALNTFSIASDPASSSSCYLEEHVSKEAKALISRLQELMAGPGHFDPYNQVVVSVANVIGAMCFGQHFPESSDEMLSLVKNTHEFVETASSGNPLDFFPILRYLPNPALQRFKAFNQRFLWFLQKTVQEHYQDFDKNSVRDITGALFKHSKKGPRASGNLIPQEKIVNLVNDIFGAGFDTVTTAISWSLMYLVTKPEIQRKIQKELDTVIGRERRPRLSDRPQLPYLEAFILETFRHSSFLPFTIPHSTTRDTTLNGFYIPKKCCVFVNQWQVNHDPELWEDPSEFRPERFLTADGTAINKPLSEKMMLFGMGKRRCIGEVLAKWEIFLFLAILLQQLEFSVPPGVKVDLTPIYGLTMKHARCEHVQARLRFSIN
readout name: IC50

Look up and report measured IC50 for this entry: CC(C)n1cnc2c(NCc3ccc(-c4ccccn4)cc3)nc(NC[C@@H](O)CO)nc21
> 5 µM

###

Molecular target: Glycogen synthase kinase-3 (Homo sapiens, UniProt P49840+P49841)
Assay: Inhibition of GSK3 alpha/beta
Format: protein assay
readout name: IC50

[[record]]
structure_notation = "CC(C)[C@H](N)C(=O)OC[C@H](O)CNc1nc(NCc2ccc(-c3ccccn3)cc2)c2ncn(C(C)C)c2n1.Cl"
target_system = "Glycogen synthase kinase-3 (Homo sapiens, UniProt P49840+P49841)"
readout_name = "IC50"
result_value = "> 10 µM"

[[record]]
structure_notation = "CC(C)n1cnc2c(NCc3ccc(-c4ccccn4)cc3)nc(NCC[C@H](O)CO)nc21"
target_system = "Glycogen synthase kinase-3 (Homo sapiens, UniProt P49840+P49841)"
readout_name = "IC50"
result_value = "> 10 µM"

[[record]]
structure_notation = "CC(C)n1cnc2c(NCc3ccc(-c4ccccn4)cc3)nc(N3C[C@H](O)C[C@H]3CO)nc21"
target_system = "Glycogen synthase kinase-3 (Homo sapiens, UniProt P49840+P49841)"
readout_name = "IC50"
result_value = "> 10 µM"


Look up and report measured IC50 for this entry: CC(C)n1cnc2c(NCc3ccc(-c4ccccn4)cc3)nc(NC[C@@H](O)CO)nc21
7.1 µM

Look up and report measured IC50 for this entry: CC(C)n1cnc2c(NCc3ccc(-c4ccccn4)cc3)nc(N[C@@H]3CCC[C@H](O)[C@@H]3O)nc21
> 10 µM

###

Measured IC50 values are reported for all entries that follow.
Target: Dual specificity tyrosine-phosphorylation-regulated kinase 1A (Homo sapiens)
Test: Inhibition of human recombinant DYRK1A expressed in Escherichia coli after 30 mins by liquid scintillation counter
Write it as a number; the unit nM goes unstated.

Below, each entry is followed by its recorded IC50 result.
[[record]]
structure_notation = "CC(C)n1cnc2c(NCc3ccc(-c4ccccn4)cc3)nc(N3C[C@H](O)C[C@H]3CO)nc21"
result_value = 1600

[[record]]
structure_notation = "CC(C)[C@H](N)C(=O)OC[C@H](O)CNc1nc(NCc2ccc(-c3ccccn3)cc2)c2ncn(C(C)C)c2n1.Cl"
result_value = 1100


Look up and report measured IC50 for this entry: CC(C)n1cnc2c(NCc3ccc(-c4ccccn4)cc3)nc(NC[C@@H](O)CO)nc21
710

Values from ChEMBL document CHEMBL2086256
